- Target System: T1, human PD-L1 (CD274), full-length, expressed on the surface of CHO cells (human, UniProt Q9NZQ7 19-290)
- T1 construct: also called huPD-L1; B7-H1
- T1 sequence (Q9NZQ7 19-290): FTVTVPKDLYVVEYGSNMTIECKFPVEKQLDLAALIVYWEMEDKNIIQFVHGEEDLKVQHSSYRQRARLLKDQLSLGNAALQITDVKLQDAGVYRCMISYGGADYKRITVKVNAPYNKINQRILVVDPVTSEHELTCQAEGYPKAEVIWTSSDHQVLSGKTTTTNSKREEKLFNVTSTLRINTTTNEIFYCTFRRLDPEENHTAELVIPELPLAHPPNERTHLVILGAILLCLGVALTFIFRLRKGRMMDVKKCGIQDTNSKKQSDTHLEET
- Test Method Notes: flow cytometry, CHO cells stably expressing human PD-L1, 33.3 nM Fc fusion, PE anti-human Fc
Measurement Label: MFI at 33.3 nM (MFI)
Report only the number, with the unit MFI understood.

Here are 5 binders together with their reported answers.
Enquiry: Give the measured MFI at 33.3 nM of variant CD80 IgV-Fc Q33L/E35D/M47L/V68M/L85Q/E88D (Fc fusion, not shown: a dimerising Fc or GST) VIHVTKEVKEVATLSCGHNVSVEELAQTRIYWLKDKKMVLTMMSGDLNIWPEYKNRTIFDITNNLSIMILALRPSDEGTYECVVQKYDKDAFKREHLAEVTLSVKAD .
Return: 126000

Enquiry: # get_value(readout='MFI at 33.3 nM', item= variant CD80 IgV-Fc H18Y/E35D/V68M/L97Q (Fc fusion, not shown: a dimerising Fc or GST) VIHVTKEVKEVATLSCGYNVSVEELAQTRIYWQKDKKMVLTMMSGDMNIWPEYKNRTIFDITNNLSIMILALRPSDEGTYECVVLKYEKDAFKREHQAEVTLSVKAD )
Return: 122000

Enquiry: Any idea what MFI at 33.3 nM was measured for variant CD80 IgV-Fc V22A/R29H/E35D/D46E/M47I (Fc fusion, not shown: a dimerising Fc or GST) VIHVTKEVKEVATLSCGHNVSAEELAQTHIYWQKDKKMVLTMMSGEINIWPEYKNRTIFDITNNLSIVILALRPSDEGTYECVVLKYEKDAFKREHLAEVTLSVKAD ?
Return: 25400

Enquiry: Sample variant CD80 IgV-Fc V22A/E35D/V68E/A71D (Fc fusion, not shown: a dimerising Fc or GST, The molecule is an Fc fusion, which the general text describes as a dimer) VIHVTKEVKEVATLSCGHNVSAEELAQTRIYWQKDKKMVLTMMSGDMNIWPEYKNRTIFDITNNLSIEILDLRPSDEGTYECVVLKYEKDAFKREHLAEVTLSVKAD — what was its MFI at 33.3 nM?
Return: 1350

Enquiry: Which value of MFI at 33.3 nM has been reported for variant CD80 IgV-Fc E35D/D46E/M47V/L97Q (Fc fusion, not shown: a dimerising Fc or GST) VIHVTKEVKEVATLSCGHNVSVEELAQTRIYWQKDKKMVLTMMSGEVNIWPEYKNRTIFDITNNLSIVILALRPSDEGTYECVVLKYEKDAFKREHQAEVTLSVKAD in the records?
Return: 19500

Others:
Enquiry: Give its MFI at 33.3 nM value. Item: variant CD80 IgV-Fc Q33L/E35D/M43V/M47I/A71G (Fc fusion, not shown: a dimerising Fc or GST) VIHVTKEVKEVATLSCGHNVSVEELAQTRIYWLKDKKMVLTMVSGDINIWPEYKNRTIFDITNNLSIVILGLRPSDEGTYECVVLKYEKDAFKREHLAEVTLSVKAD
Return: 78000

Enquiry: Suppose we examine the binder variant CD80 IgV-Fc Q33L/E35D/N48K/L85Q/L97Q (Fc fusion, not shown: a dimerising Fc or GST) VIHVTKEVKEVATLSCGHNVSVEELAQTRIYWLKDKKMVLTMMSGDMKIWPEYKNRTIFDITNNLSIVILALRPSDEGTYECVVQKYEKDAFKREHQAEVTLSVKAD ; what MFI at 33.3 nM value has been reported?
Return: 45200

Enquiry: Endpoint output: MFI at 33.3 nM of variant CD80 IgV-Fc Q33L/E35D/M43I/L85Q/R94W (Fc fusion, not shown: a dimerising Fc or GST) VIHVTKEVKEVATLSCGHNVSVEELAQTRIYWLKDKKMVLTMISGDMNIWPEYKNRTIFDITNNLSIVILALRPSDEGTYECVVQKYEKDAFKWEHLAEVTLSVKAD . Value?
Return: 29000
